- System: CYP2B/3A
- protocol-text: CYP2B/3A (BROD activity, benzyloxyresorufin O-debenzylation) in human liver microsomes
- Type: in vitro ADME
- study-conditions: liver microsomes, probe benzyloxyresorufin; human, 5 µM inhibitor
- Description: Enzyme activities were assayed in human and rat liver cytosolic and microsomal fractions. The enzyme assays (each performed in 4–8 replicates) were repeated three times (HPLC measurement of CYP activities was repeated only twice, Table 3). […] Enzyme activities of individual CYP forms were measured according to established protocols. […] Sesquiterpenes CNER, TNER and FAR, non-volatile liquids, were pipetted, and proper concentration was calculated according to density. […]
measurement-kind: inhibition at 5 µM

Worked set:
> print(dat)
                                   compound  recorded.value
1  CC(=O)N1CCN(c2ccc(OCC3COC(Cn4ccnc4)(c4ccc(Cl)cc4Cl)O3)cc2)CC1 (stereo not shown) [KET, ketoconazole, reference compound]             66%
2  C=CC(C)(O)CC/C=C(/C)CCC=C(C)C (stereo not drawn) [CNER, cis-nerolidol]             71%
3  CC(C)=CCC/C(C)=C/CC/C(C)=C/CO [FAR, farnesol]             85%

Could you now look at the following compound, please?
# query: inhibition at 5 µM of entry C=CC(C)(O)CC/C=C(\C)CCC=C(C)C (stereo not drawn) [TNER, trans-nerolidol]
68%

* * *

Task for the reader: assign each of the following compounds its reported pIC50.
- System: CYP2B/3A
- protocol-text: CYP2B/3A (BROD activity, benzyloxyresorufin O-debenzylation) in human liver microsomes
- Assay type: in vitro ADME
- study-conditions: probe benzyloxyresorufin; human liver microsomes
Answers are plain numbers, as −log10 of the molar value.

Quick request: pIC50 for each listed item, please.
1. CC(=O)N1CCN(c2ccc(OCC3COC(Cn4ccnc4)(c4ccc(Cl)cc4Cl)O3)cc2)CC1 (stereo not shown) [KET, ketoconazole, reference compound]
2. C=CC(C)(O)CC/C=C(\C)CCC=C(C)C (stereo not drawn) [TNER, trans-nerolidol]
3. C=CC(C)(O)CC/C=C(/C)CCC=C(C)C (stereo not drawn) [CNER, cis-nerolidol]
4. CC(C)=CCC/C(C)=C/CC/C(C)=C/CO

[5.57, 5.62, 5.88, 5.75]
